The values you see were collected from ChEMBL document CHEMBL1127225.

Target: Neprilysin (Rattus norvegicus, UniProt P07861)
Sequence (P07861 whole entry): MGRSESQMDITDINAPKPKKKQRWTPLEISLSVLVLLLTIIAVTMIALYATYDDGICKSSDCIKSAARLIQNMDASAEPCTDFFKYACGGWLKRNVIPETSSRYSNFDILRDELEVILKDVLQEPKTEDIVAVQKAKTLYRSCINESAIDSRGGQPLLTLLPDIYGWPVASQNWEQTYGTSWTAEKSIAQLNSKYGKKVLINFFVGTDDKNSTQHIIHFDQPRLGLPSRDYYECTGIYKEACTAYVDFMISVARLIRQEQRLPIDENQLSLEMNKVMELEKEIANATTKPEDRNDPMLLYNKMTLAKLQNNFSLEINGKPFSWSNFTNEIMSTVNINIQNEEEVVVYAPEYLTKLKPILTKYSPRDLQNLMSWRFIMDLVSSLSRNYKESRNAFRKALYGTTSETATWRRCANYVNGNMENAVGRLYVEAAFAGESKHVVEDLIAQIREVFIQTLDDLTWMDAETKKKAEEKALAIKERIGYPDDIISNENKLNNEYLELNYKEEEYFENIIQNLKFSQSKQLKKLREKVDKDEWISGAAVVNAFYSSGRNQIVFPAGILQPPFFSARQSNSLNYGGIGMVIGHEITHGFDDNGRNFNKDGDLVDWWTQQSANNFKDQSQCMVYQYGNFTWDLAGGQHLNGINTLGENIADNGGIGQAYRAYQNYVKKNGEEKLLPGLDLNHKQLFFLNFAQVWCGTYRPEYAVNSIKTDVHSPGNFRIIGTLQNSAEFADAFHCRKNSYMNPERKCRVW
readout: IC50 (nM)
Form entry: value (nM) — number only.

q: Lookup: IC50 / Neprilysin (Rattus norvegicus, UniProt P07861) / "COCCOC[C@H](CC1(C(=O)N[C@H]2CC[C@@H](C(=O)O)CC2)CCCC1)C(=O)O"
a: 38
